The reported numbers originate from patent US5840859A.

# testDetails: Rat splenic lymphocyte survival after labeling (Trypan blue exclusion test)
# Type: cell-based
# testParameters: rat, splenic lymphocytes; Example 11, trypan blue; 12% dead before labeling; read-out: dead cells after labeling
quantityKind: cytotoxicity (%)
Reply with just the number (in %).

query: Can you look up the measured cytotoxicity of CCCCCCN(CCCCCC)c1ccc(/C=C/c2cc[n+](C/C=C/[125I])cc2)cc1 [^125 I-4b] for me?
result: 12

====

# testDetails: Viability of labeled lymphocytes (Trypan Blue exclusion test)
# Type: cell-based, dog and rat
# testParameters: before and after radiolabeling
quantityKind: viability

query: So what's the measured viability for this one? CCCCN(CCCC)c1ccc(/C=C/c2cc[n+](C/C=C/[125I])cc2)cc1
result: > 90%
